Molecular target: T1, human beta CGRP (SEQ ID NO: 81) (human, not fully specified)
T1 construct: also called human βCGRP; hβCGRP
T1 peptide: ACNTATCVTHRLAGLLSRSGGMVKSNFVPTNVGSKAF
Test: SPR, 37 C, mutein captured, CGRP analyte

Binder	koff [s⁻¹]
lipocalin mutein SEQ ID NO: 25 (designed binder, biotinylated by NHS chemistry for capture in SPR) QDSTSDLIPAPPLSKVPLQQNFQDNQFHGKWYVVGWAGNTLLREDKDPIKMQAKIYELKEDRSYNVTWVYFADKKCNYHIETFVPGSQPGEFTLGTIKSYPGETPILVRVVSTNYNQHAMVFFKGVNQNREIFEIILYGRTKELTNELKENFIRFSKSLGLPENHIVFPVPIDQCIDGSAWSHPQFEK	1.01e-05
lipocalin mutein SEQ ID NO: 22 (designed binder, biotinylated by NHS chemistry for capture in SPR) QDSTSDLIPAPPLSKVPLQQNFQDNQFHGKWYVVGRAGNDALREDKDPEKMEATIYELKEDKSYNVTDVGLVQKKCMYVIHTFVPGGQPGEFTLGNIKSYPGVTSALVRVVSTNYNQHAMVFVKLVKQNRELFEITLYGRTKELTSELKENFIRFSKSLGLPENHIVFPVPIDQCIDGSAWSHPQFEK	9.32e-06
lipocalin mutein SEQ ID NO: 4 (designed binder, biotinylated by NHS chemistry for capture in SPR) QDSTSDLIPAPPLSKVPLQQNFQDNQFHGKWYVVGWAGNTLLREDKDPTKMQATIYELKEDKSYNVTWVYFSEKKCNYHIETFVPGSQPGEFTLGTIKSYPGETSILVRVVSTNYNQHAMVFFKGVSQNREIFEITLYGRTKELTSELKENFIRFSKSLGLPENHIVFPVPIDQCIDGSAWSHPQFEK	0.00395
lipocalin mutein SEQ ID NO: 19 (designed binder, biotinylated by NHS chemistry for capture in SPR) QDSTSDLIPAPPLSKVPLQQNFQDNQFHGKWYVVGRAGNDTLREDKDPEKMEATIYELKEDKSYNVTDVGLVQKKCMYVIHTFVPGSQPGEFTLGNIKSYPGVTSALVRVVSTNYNQHAMVFVKLVKQSRELFEITLYGRTKELTSELKENFIRFSKSLGLPENHIVFPVPIDQCIDGSAWSHPQFEK	6.67e-06
lipocalin mutein SEQ ID NO: 26 (designed binder, biotinylated by NHS chemistry for capture in SPR) QDSTSDLIPAPPLSKVPLQQNFQDNQFHGKWYVVGWAGNTLLREDKDPIKMQAKIYELKEDRSYNVTWVYFADKKCRYHIETFVPGSQPGEFTLGTIKSHPGETPILVRVVSTNYNQHAMVFFKGVNQNREIFEIILYGRTKELTNELKENFIRFSKSLGLPENHIVFPVPIDQCIDGSAWSHPQFEK	7.6e-06
lipocalin mutein SEQ ID NO: 14 (designed binder, biotinylated by NHS chemistry for capture in SPR) QDSTSDLIPAPPLSKVPLQQNFQDNQFHGKWYVVGRAGNDALREDKDPEKMEATIYELKEDKSYNVTDVGFVQKKCMYVIHTFVPGSQPGEFTLGNIKSYPGVTSALVRVVSTNYNQHAMVFFKLVKQNRELFEITLYGRTKELTSELKENFIRFSKSLGLPENHIVFPVPIDQCIDGSAWSHPQFEK	0.000141
